Can you tell me kon for the items I'm about to list?
- assayed.system: T1, Fusion protein of extracellular domain of human TIGIT and His-tag (human TIGIT ECD-his) (human)
- T1 chain: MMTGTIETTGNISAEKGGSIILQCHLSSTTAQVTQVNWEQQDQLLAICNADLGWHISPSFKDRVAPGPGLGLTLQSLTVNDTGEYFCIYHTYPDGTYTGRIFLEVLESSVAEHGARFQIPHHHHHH
- experiment: BIAcore
State the answer as a number, implicitly in M⁻¹ s⁻¹.

Per the records, this binder ( TIGIT-070-H3L1 (antibody, V domains shown, Humanized anti-TIGIT antibody) VH: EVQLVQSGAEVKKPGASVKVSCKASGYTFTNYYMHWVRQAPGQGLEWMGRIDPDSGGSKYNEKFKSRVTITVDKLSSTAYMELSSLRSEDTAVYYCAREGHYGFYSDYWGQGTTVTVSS VL: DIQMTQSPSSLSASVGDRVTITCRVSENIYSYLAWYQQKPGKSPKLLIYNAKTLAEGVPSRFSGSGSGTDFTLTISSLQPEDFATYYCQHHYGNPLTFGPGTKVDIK ) has kon equal to 1.26e+06

Per the records, this binder ( TIGIT-005-H2L1 (antibody, V domains shown, Humanized anti-TIGIT antibody) VH: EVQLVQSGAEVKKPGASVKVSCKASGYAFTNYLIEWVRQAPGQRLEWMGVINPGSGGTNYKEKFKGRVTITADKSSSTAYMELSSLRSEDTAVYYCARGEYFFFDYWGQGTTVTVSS VL: DIVMTQSPDSLAVSLGERATINCKASQHVSNGVAWYQHKPGQSPKLLIYSASYRYTGVPDRFSGSGSGTDFTLTISSLQAEDVAVYYCQQHYNTPHTFGGGTKVEIK ) has kon equal to 4.26e+06

Per the records, this binder ( TIGIT-006-H2L1 (antibody, V domains shown, Humanized anti-TIGIT antibody) VH: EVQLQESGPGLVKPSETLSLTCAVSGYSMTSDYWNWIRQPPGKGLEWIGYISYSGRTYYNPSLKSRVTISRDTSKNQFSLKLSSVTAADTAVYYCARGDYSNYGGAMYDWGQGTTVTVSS VL: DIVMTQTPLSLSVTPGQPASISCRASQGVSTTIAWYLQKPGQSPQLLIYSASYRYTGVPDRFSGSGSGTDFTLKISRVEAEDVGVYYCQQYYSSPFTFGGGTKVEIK ) has kon equal to 403000

Per the records, this binder ( TIGIT-005-H2L1c (antibody, V domains shown, Humanized anti-TIGIT antibody with NG-site mutation in VL) VH: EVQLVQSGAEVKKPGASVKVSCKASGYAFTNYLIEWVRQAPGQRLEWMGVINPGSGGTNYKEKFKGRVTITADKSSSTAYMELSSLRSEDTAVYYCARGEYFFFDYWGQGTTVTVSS VL: DIVMTQSPDSLAVSLGERATINCKASQHVSDGVAWYQHKPGQSPKLLIYSASYRYTGVPDRFSGSGSGTDFTLTISSLQAEDVAVYYCQQHYNTPHTFGGGTKVEIK ) has kon equal to 2.49e+06

Per the records, this binder ( TIGIT-CHI-002 (antibody, V domains shown, Human-mouse chimeric antibody) VH: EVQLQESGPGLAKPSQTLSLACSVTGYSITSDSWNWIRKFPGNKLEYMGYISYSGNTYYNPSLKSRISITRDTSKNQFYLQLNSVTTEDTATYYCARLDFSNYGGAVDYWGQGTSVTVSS VL: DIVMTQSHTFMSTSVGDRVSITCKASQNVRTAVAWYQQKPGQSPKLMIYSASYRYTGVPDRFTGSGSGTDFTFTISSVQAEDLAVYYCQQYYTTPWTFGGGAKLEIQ ) has kon equal to 7.13e+06

Reference source: patent US20240343803A1
